Test system: T47D cells
Test: Cell antiproliferative activity assay (CCK-8), T47D
Assay type: cell-based
Conditions: Homo sapiens, 72 h, breast cancer cell line T47D, incubation for 3 days
ATTRIBUTE MEASURED: IC50

Example entries begin here.
[
  {
    "CHEM SMILES": "Cc1c[nH]c(=O)cc1-c1cc(C(C)C)c2nc(Nc3cn(C)nc3C)ncc2c1",
    "RECORDED MEASUREMENT": "≤ 500 nM"
  },
  {
    "CHEM SMILES": "COc1cc(Nc2ncc3cc(-c4nnccc4C)cc(C4CC4)c3n2)ccc1P(C)(C)=O",
    "RECORDED MEASUREMENT": "≤ 500 nM"
  },
  {
    "CHEM SMILES": "Cc1ncnc(C)c1-c1cc(C(C)C)c2nc(Nc3cnn(CCO)c3)ncc2c1",
    "RECORDED MEASUREMENT": "500 to 1000 nM"
  },
  {
    "CHEM SMILES": "[2H]C([2H])([2H])n1cc(Nc2ncc3cc(-c4nccnc4C)cc(C(C)C)c3n2)c(C)n1",
    "RECORDED MEASUREMENT": "≤ 500 nM"
  },
  {
    "CHEM SMILES": "Cc1nn(CCO)cc1Nc1ncc2cc(-c3cccnc3C)cc(C(C)C)c2n1",
    "RECORDED MEASUREMENT": "500 to 1000 nM"
  },
  {
    "CHEM SMILES": "Cc1ccnc(F)c1-c1cc(C(C)C)c2nc(Nc3cn(CCO)nc3C)ncc2c1",
    "RECORDED MEASUREMENT": "≤ 500 nM"
  },
  {
    "CHEM SMILES": "Cc1nn(C)cc1Nc1ncc2cc(-c3nccnc3C)cc(C(C)C)c2n1",
    "RECORDED MEASUREMENT": "≤ 500 nM"
  },
  {
    "CHEM SMILES": "COc1cc(Nc2ncc3cc(-c4cccnc4)cc(C4CC4)c3n2)ccc1P(C)(C)=O",
    "RECORDED MEASUREMENT": "≤ 500 nM"
  }
]

Noted for Cc1nn(CC(C)(C)O)cc1Nc1ncc2cc(-c3cccnc3C)cc(C(C)C)c2n1 : its IC50 reads 500 to 1000 nM

Lookup result for Cc1nn(CCO)cc1Nc1ncc2cc(-c3c[nH]nc3C)cc(C(C)C)c2n1 ; measured IC50: ≤ 500 nM

So, Cc1nn(CCO)cc1Nc1ncc2cc(-c3cc(F)cnc3C)cc(C(C)C)c2n1 ? Its IC50 was 500 to 1000 nM

The reported value for Cc1nn(CCO)cc1Nc1ncc2cc(-c3cc(O)ccc3F)cc(C(C)C)c2n1 in terms of IC50 is ≤ 500 nM

Cc1ccnnc1-c1cc(C2CC2)c2nc(Nc3cn(CCO)nc3C)ncc2c1 yielded IC50 of 500 to 1000 nM

Noted for COc1c(P(C)(C)=O)ccc(Nc2ncc3cc(-c4nccnc4C)cc(C4CC4)c3n2)c1F : its IC50 reads ≤ 500 nM

Per the record, Cc1c[nH]c(=O)cc1-c1cc(C(C)C)c2nc(Nc3cnn(C4CCN(C)CC4)c3C)ncc2c1 has IC50 of 500 to 1000 nM

According to the records, this compound Cc1nccnc1-c1cc(C(C)C)c2nc(Nc3cn(C)nc3Cl)ncc2c1 displays IC50 of 500 to 1000 nM

Measured IC50 of Cc1nn(CCO)cc1Nc1ncc2cc(-c3cncnc3C)cc(C3CC3)c2n1 : 500 to 1000 nM

Reported IC50 for COc1cc(Nc2ncc3cc(-c4nccnc4C)cc(C(C)C)c3n2)ccc1P(C)(C)=O was ≤ 500 nM
